settings: 308.15 K; 101 kPa; Liquid
Is viscosity at least 4 mPa·s? Then label 1. If not, label 0.

• Clc1ccccc1 = label 0
• CCCCCCCO = label 1
• CCCCCCCCCO = label 1
• CCCCCCCCCCO = label 1
• CCCCCCO = label 0

====

Entries and their log10(viscosity)
details: 303.15 K; 101 kPa; Liquid
OBSERVATION_TYPE: log10(viscosity) (log10 of the value in mPa·s)

• CCCCCCCO = 0.70
• CCCCCCCCCO = 0.90
• Clc1ccccc1 = -0.15
• CCCCCCCCCCO = 0.99
• CCCCCCO = 0.59

====

details: 303.15 K; 101 kPa; Liquid
Numbers after ± are expanded uncertainties.
OBSERVATION_TYPE: speed of sound

- CCCCCCCO: 1313.6 ± 1.4 m/s
- CCCCCCCCCO: 1353.6 ± 5.2 m/s
- CCCCCCCCCCO: 1365 ± 1.5 m/s
- Clc1ccccc1: 1249.4 ± 1.4 m/s
- CCCCCCO: 1287.9 ± 1.4 m/s

====

Each item that follows carries a reported speed of sound.
details: 298.15 K; 101 kPa; Liquid
OBSERVATION_TYPE: speed of sound (m/s)

- CCCCCCO: 1304.7
- CCCCCCCCCO: 1365.5
- CCCCCCCO: 1327.3
- Clc1ccccc1: 1268
- CCCCCCCCCCO: 1380

====

conditions: 308.15 K; 101 kPa; Liquid
OBSERVATION_TYPE: mass density (kg/m3)

* CCCCCCCO [heptan-1-ol] | 811.737
* CCCCCCCCCCO [decan-1-ol] | 819.427
* CCCCCCCCCO [nonan-1-ol] | 817.582
* CCCCCCO [hexan-1-ol] | 808.482
* Clc1ccccc1 [chlorobenzene] | 1089.08

====

conditions: 298.15 K; 101 kPa; Liquid
± gives the expanded uncertainty stated by the source.
viscosity values, listed per item
OBSERVATION_TYPE: viscosity

• CCCCCCCCCO = 9.715 ± 0.26 mPa·s
• CCCCCCCCCCO = 11.83 ± 0.1 mPa·s
• CCCCCCCO = 5.944 ± 0.056 mPa·s
• Clc1ccccc1 = 0.757 ± 0.014 mPa·s
• CCCCCCO = 4.594 ± 0.045 mPa·s

====

settings: 298.15 K; 101 kPa; Liquid
Listing: mass density of selected molecules
OBSERVATION_TYPE: mass density (kg/m3)

* CCCCCCCCCO | 824.478
* CCCCCCCCCCO | 826.762
* CCCCCCO | 815.23
* CCCCCCCO | 818.732

====

Item-by-item account of speed of sound
conditions: 308.15 K; 101 kPa; Liquid
OBSERVATION_TYPE: speed of sound (m/s)

- CCCCCCCCCO [nonan-1-ol]: 1331.8
- CCCCCCO [hexan-1-ol]: 1271.1
- Clc1ccccc1 [chlorobenzene]: 1230.9
- CCCCCCCO [heptan-1-ol]: 1293.9
- CCCCCCCCCCO [decan-1-ol]: 1346.1

====

settings: 313.15 K; 101 kPa; Liquid
OBSERVATION_TYPE: speed of sound (m/s)

• CCCCCCCO = 1277.2
• CCCCCCO = 1254.5
• CCCCCCCCCO = 1315
• CCCCCCCCCCO = 1329.3
• Clc1ccccc1 = 1212.6

====

settings: 313.15 K; 101 kPa; Liquid
Measured viscosity, listed per entry for reference.
OBSERVATION_TYPE: viscosity (mPa·s)

- CCCCCCO: 2.914
- Clc1ccccc1: 0.617
- CCCCCCCO: 3.726
- CCCCCCCCCCO: 6.842
- CCCCCCCCCO: 5.645
